Each entry below lists one item and its recorded logD value.
Test: Partition coefficient was determined by dividing the concentration of compound in 1-octanol by concentration in aqueous phase at pH 7.4
Assay type: physicochemical
Conditions: 1-octanol/aqueous phase, read-out: Log D7.4

>  <chemical-structure>
CCCC(=O)NCCCN1CCN(CCCNc2ccnc3cc(Cl)ccc23)CC1

>  <value-comparator>
=

>  <logD>
1.06

$$$$
>  <chemical-structure>
O=C(NCCCN1CCN(CCCNc2ccnc3cc(Cl)ccc23)CC1)c1ccc([N+](=O)[O-])cc1

>  <value-comparator>
>

>  <logD>
2.78

$$$$
>  <chemical-structure>
O=C(NCCCN1CCN(CCCNc2ccnc3cc(Cl)ccc23)CC1)C1CC1

>  <value-comparator>
>

>  <logD>
2.78

$$$$
>  <chemical-structure>
Clc1ccc2c(NCCCN3CCN(CCCN(CC4CC4)CC4CC4)CC3)ccnc2c1

>  <value-comparator>
=

>  <logD>
1.16

$$$$
>  <chemical-structure>
CCCCN(CCCC)CCCN1CCN(CCCNc2ccnc3cc(Cl)ccc23)CC1

>  <value-comparator>
=

>  <logD>
1.92

$$$$
